# Tested on: Escherichia coli TOP10
# test_description: shrunken log2 fold change of peptide-encoding DNA abundance (4.5 h post-induction vs induction); higher = less antimicrobial activity (less host growth inhibition)
# recorded_conditions: time post-induction: 4.5 h; library: site-saturation at positions 5, 18, 19, 20
# maps each entry to its shrunken log2 fold change
reported_endpoint: shrunken log2 fold change

- macromolecule_sequence: "RRIRRRPPRLPRPRPRPALHPRP"
  reported_endpoint: "shrunken log2 fold change"
  assay_value: 0.651
- macromolecule_sequence: "RRIRVRPPRLPRPRPRPYMFPRP"
  reported_endpoint: "shrunken log2 fold change"
  assay_value: -0.552
- macromolecule_sequence: "RRIRSRPPRLPRPRPRPWCNPRP"
  reported_endpoint: "shrunken log2 fold change"
  assay_value: -0.116
- macromolecule_sequence: "RRIRCRPPRLPRPRPRPDQKPRP"
  reported_endpoint: "shrunken log2 fold change"
  assay_value: 0.0192
- macromolecule_sequence: "RRIRTRPPRLPRPRPRPIVRPRP"
  reported_endpoint: "shrunken log2 fold change"
  assay_value: -0.00141
- macromolecule_sequence: "RRIRMRPPRLPRPRPRPQLYPRP"
  reported_endpoint: "shrunken log2 fold change"
  assay_value: 0.284
- macromolecule_sequence: "RRIRIRPPRLPRPRPRPAWKPRP"
  reported_endpoint: "shrunken log2 fold change"
  assay_value: 0.123
- macromolecule_sequence: "RRIRDRPPRLPRPRPRPIRSPRP"
  reported_endpoint: "shrunken log2 fold change"
  assay_value: -0.00822
- macromolecule_sequence: "RRIRTRPPRLPRPRPRPFFIPRP"
  reported_endpoint: "shrunken log2 fold change"
  assay_value: -0.518
- macromolecule_sequence: "RRIRLRPPRLPRPRPRPNNIPRP"
  reported_endpoint: "shrunken log2 fold change"
  assay_value: -0.559
- macromolecule_sequence: "RRIRVRPPRLPRPRPRPVIQPRP"
  reported_endpoint: "shrunken log2 fold change"
  assay_value: -0.336
- macromolecule_sequence: "RRIRTRPPRLPRPRPRPEKEPRP"
  reported_endpoint: "shrunken log2 fold change"
  assay_value: 0.0172
- macromolecule_sequence: "RRIRPRPPRLPRPRPRPNYRPRP"
  reported_endpoint: "shrunken log2 fold change"
  assay_value: -0.451
- macromolecule_sequence: "RRIRIRPPRLPRPRPRPYSPPRP"
  reported_endpoint: "shrunken log2 fold change"
  assay_value: -0.0324
- macromolecule_sequence: "RRIRRRPPRLPRPRPRPRKNPRP"
  reported_endpoint: "shrunken log2 fold change"
  assay_value: 0.179

---

# Tested on: Escherichia coli TOP10;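 further: peptides expressed intracellularly from a pBAD plasmid library in pooled LB shake-flask culture, induced with 0.3% L-arabinose, DNA abundance read by NGS, three biological replicates, DESeq2 with apeglm shrinkage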
# test_description: shrunken log2 fold change of peptide-encoding DNA abundance (4.5 h post-induction vs induction); higher = less antimicrobial activity (less host growth inhibition)
# recorded_conditions: time post-induction: 4.5 h; library: site-saturation at positions 5, 18, 19, 20
Please mark YES if the recorded shrunken log2 fold change is equal to or greater than -0.04, and NO if it falls below.

- macromolecule_sequence: "RRIRIRPPRLPRPRPRPCTMPRP"
  label_class: "YES"
- macromolecule_sequence: "RRIRARPPRLPRPRPRPVIIPRP"
  label_class: "NO"
- macromolecule_sequence: "RRIRGRPPRLPRPRPRPPQIPRP"
  label_class: "YES"
- macromolecule_sequence: "RRIRQRPPRLPRPRPRPTFYPRP"
  label_class: "NO"
- macromolecule_sequence: "RRIRSRPPRLPRPRPRPGKHPRP"
  label_class: "YES"
- macromolecule_sequence: "RRIRIRPPRLPRPRPRPWWDPRP"
  label_class: "NO"
- macromolecule_sequence: "RRIRTRPPRLPRPRPRPCIEPRP"
  label_class: "NO"
- macromolecule_sequence: "RRIRERPPRLPRPRPRPNAVPRP"
  label_class: "NO"
- macromolecule_sequence: "RRIRFRPPRLPRPRPRPVWYPRP"
  label_class: "NO"
- macromolecule_sequence: "RRIRTRPPRLPRPRPRPITSPRP"
  label_class: "YES"
- macromolecule_sequence: "RRIRIRPPRLPRPRPRPPYRPRP"
  label_class: "NO"
- macromolecule_sequence: "RRIRCRPPRLPRPRPRPPTYPRP"
  label_class: "NO"
- macromolecule_sequence: "RRIRARPPRLPRPRPRPIDCPRP"
  label_class: "YES"
- macromolecule_sequence: "RRIRNRPPRLPRPRPRPFVRPRP"
  label_class: "YES"
- macromolecule_sequence: "RRIRSRPPRLPRPRPRPMAEPRP"
  label_class: "YES"
- macromolecule_sequence: "RRIRCRPPRLPRPRPRPANRPRP"
  label_class: "YES"
- macromolecule_sequence: "RRIRARPPRLPRPRPRPEFKPRP"
  label_class: "YES"
- macromolecule_sequence: "RRIRNRPPRLPRPRPRPVTKPRP"
  label_class: "YES"
- macromolecule_sequence: "RRIRQRPPRLPRPRPRPQYPPRP"
  label_class: "NO"
- macromolecule_sequence: "RRIRMRPPRLPRPRPRPFGDPRP"
  label_class: "YES"
- macromolecule_sequence: "RRIRQRPPRLPRPRPRPRQGPRP"
  label_class: "YES"
- macromolecule_sequence: "RRIRFRPPRLPRPRPRPFWSPRP"
  label_class: "NO"
- macromolecule_sequence: "RRIRFRPPRLPRPRPRPCSAPRP"
  label_class: "NO"
- macromolecule_sequence: "RRIRVRPPRLPRPRPRPEHRPRP"
  label_class: "NO"
- macromolecule_sequence: "RRIRLRPPRLPRPRPRPRHVPRP"
  label_class: "NO"
- macromolecule_sequence: "RRIRLRPPRLPRPRPRPRSGPRP"
  label_class: "YES"
- macromolecule_sequence: "RRIRRRPPRLPRPRPRPRNTPRP"
  label_class: "YES"
- macromolecule_sequence: "RRIRHRPPRLPRPRPRPNCLPRP"
  label_class: "YES"
- macromolecule_sequence: "RRIRSRPPRLPRPRPRPMMIPRP"
  label_class: "NO"
- macromolecule_sequence: "RRIRPRPPRLPRPRPRPMYRPRP"
  label_class: "NO"
- macromolecule_sequence: "RRIRARPPRLPRPRPRPHCCPRP"
  label_class: "YES"
- macromolecule_sequence: "RRIRPRPPRLPRPRPRPCLKPRP"
  label_class: "NO"
